target: α−Glucosidase (from yeast); assay: In vitro α−glucosidase inhibitory activity assay (PNPG substrate); conditions: n=3; acarbose positive control
observedProperty: pIC50
FYI, pIC50 means -log10 of a concentration in mol per litre.

Would you please look over these solved cases?
>>> numericresult("COc1cc(-c2oc3cc(O)cc(O)c3c(=O)c2OC2OC(COC(C)=O)C(O)C(O)C2O)ccc1O (centres unmarked)")
3.49
>>> numericresult("O=C(C=Cc1ccc(O)cc1)OCC1OC(Oc2c(-c3ccc(O)cc3)oc3cc(O)cc(O)c3c2=O)C(O)C(O)C1OC(=O)C=Cc1ccc(O)cc1 (centres unmarked)")
3.52
>>> numericresult("CC(C)=CCc1cc(-c2oc3cc(O)cc(O)c3c(=O)c2O)ccc1O")
3.75
>>> numericresult("O=c1c(OC2OC(COC3OC(CO)C(O)C(O)C3OC3OC(CO)C(O)C(O)C3O)C(O)C(O)C2O)c(-c2ccc(O)cc2)oc2cc(O)cc(O)c12 (centres unmarked)")
3.47
>>> numericresult("COc1ccc(-c2oc3cc(O)cc(O)c3c(=O)c2OC2OC(CO)C(O)C(O)C2O)cc1O (centres unmarked)")
3.55

Entry COc1ccc(-c2oc3cc(O)cc(O)c3c(=O)c2O)cc1CC=C(C)C , system α−Glucosidase (from yeast): what pIC50 was measured?
3.64

Entry COc1ccc(-c2oc3cc(OC)cc(O)c3c(=O)c2OC2OC(CO)C(O)C(O)C2O)cc1 (centres unmarked) [AF−15, kaempferol−4’,7−dimethyl−3−O−glucoside] , system α−Glucosidase (from yeast): what pIC50 was measured?
3.30

Entry CC(=O)OCC1OC(OC2C(C)OC(Oc3c(-c4ccc(O)cc4)oc4cc(O)cc(O)c4c3=O)C(O)C2O)C(O)C(O)C1O (centres unmarked) , system α−Glucosidase (from yeast): what pIC50 was measured?
3.54
